All figures here come from patent US20180186769A1.

Experiment: Clearance in microsomes, cyno
Format: in vitro ADME
Details: cynomolgus monkey, 1 microM, read-out: CLint, Cyno (L/h/kg) ± SD (converted)
Listing of entries alongside the reported CLint scaled at 1 µM.
parameter.measured: CLint scaled at 1 µM (L/h/kg)

INSERT INTO assay_data (compound, result_number) VALUES
  ('[2H]C([2H])([2H])Oc1ccc(C(=O)Nc2ccc(F)c([C@@]3(C(F)F)N=C(N)CCC3(F)F)c2)nc1 [Compound Y]', 12),
  ('COc1cnc(C(=O)Nc2ccc(F)c([C@]3(C)CC[C@@](F)(CF)C(N)=N3)c2)cn1 [Compound Z]', 34),
  ('[2H]C([2H])([2H])Oc1cnc(C(=O)Nc2ccc(F)c([C@]3(C)CC[C@@](F)(CF)C(N)=N3)c2)cn1 [Example 1]', 10);
